# procedureText: in vivo
# protocolConditions: female, Yorkshire-Cross, pig, 0.02 mg/kg
endpointLabel: AUC (ng·h/mL)
Give the quantity in ng·h/mL, number only.

Dear colleague, I am looking for the recorded AUC of the following molecule: C=CC[C@@H]1/C=C(\C)C[C@H](C)C[C@H](OC)[C@H]2O[C@@](O)(C(=O)C(=O)N3CCCC[C@H]3C(=O)O[C@H](/C(C)=C/[C@@H]3CC[C@@H](O)[C@H](OC)C3)[C@H](C)[C@@H](O)CC1=O)[C@H](C)C[C@@H]2OC [tacrolimus]
15.3

###

# procedureText: Pharmacokinetic study of oral vs. intra-cecal administration of tacrolimus (Example 13)
# protocolConditions: female, Yorkshire-Cross, pig, in vivo, po, 0.09 mg/kg
endpointLabel: AUC(0-t) (ng·h/mL)
Return type: number; implicit unit ng·h/mL.

// AUC(0-t) lookup, key: C=CC[C@@H]1/C=C(\C)C[C@H](C)C[C@H](OC)[C@H]2O[C@@](O)(C(=O)C(=O)N3CCCC[C@H]3C(=O)O[C@H](/C(C)=C/[C@@H]3CC[C@@H](O)[C@H](OC)C3)[C@H](C)[C@@H](O)CC1=O)[C@H](C)C[C@@H]2OC
16.8

###

# procedureText: Pharmacokinetic study of oral vs. intra-cecal administration of tacrolimus (Example 13)
# protocolConditions: female, Yorkshire-Cross, pig, in vivo, 0.02 mg/kg
# Source text: The primary objective of this study was to study the pharmacokinetics of oral versus intra-cecal administration of tacrolimus in normal Yorkshire-Cross farm swine. […]
endpointLabel: Cmax (ng/mL)
Write the number in ng/mL without appending the unit.

// lookup Cmax for C=CC[C@@H]1/C=C(\C)C[C@H](C)C[C@H](OC)[C@H]2O[C@@](O)(C(=O)C(=O)N3CCCC[C@H]3C(=O)O[C@H](/C(C)=C/[C@@H]3CC[C@@H](O)[C@H](OC)C3)[C@H](C)[C@@H](O)CC1=O)[C@H](C)C[C@@H]2OC
2.39

###

# procedureText: Tissue, plasma, rectal sample and GI content pharmacokinetics of tacrolimus, oral vs. intra-cecal ingestible device (Example 10)
# Parameters: species or system Yorkshire-Cross farm swine
# protocolConditions: female, Yorkshire-Cross, pig, in vivo; IC capsule, moderate (0.04 mg/kg) dose
endpointLabel: Cmax
Please report the result as a number followed by the unit.

Quick check: Cmax of C=CC[C@@H]1/C=C(\C)C[C@H](C)C[C@H](OC)[C@H]2O[C@@](O)(C(=O)C(=O)N3CCCC[C@H]3C(=O)O[C@H](/C(C)=C/[C@@H]3CC[C@@H](O)[C@H](OC)C3)[C@H](C)[C@@H](O)CC1=O)[C@H](C)C[C@@H]2OC [tacrolimus] ?
21.8 ng/mL

###

# procedureText: in vivo
# protocolConditions: female, Yorkshire-Cross, swine, po, 0.09 mg/kg
endpointLabel: Kp at 12 h

Please look up its Kp at 12 h: C=CC[C@@H]1/C=C(\C)C[C@H](C)C[C@H](OC)[C@H]2O[C@@](O)(C(=O)C(=O)N3CCCC[C@H]3C(=O)O[C@H](/C(C)=C/[C@@H]3CC[C@@H](O)[C@H](OC)C3)[C@H](C)[C@@H](O)CC1=O)[C@H](C)C[C@@H]2OC [tacrolimus]
0

// provenance: patent US11596670B2
